Values compiled from ChEMBL document CHEMBL1140034.

- method summary: Lipophilicity, SlogP of the compound
- Assay type: physicochemical
- condition context: octanol/water

molecule	logP
CCCC(CCC)C(=O)OCC1(CO)C/C(=C\c2cccnc2)C(=O)O1 (centres undefined)	2.9
CN(C)c1ccc(C(=O)OCC2(CO)C/C(=C\c3ccncc3)C(=O)O2)cc1 (centres undefined)	2.07
COc1ccc(C(=O)OCC2(CO)C/C(=C/c3ccc4ccccc4n3)C(=O)O2)cc1 (centres undefined)	3.16
COc1ccc(C(=O)OCC2(CO)C/C(=C\c3cccnc3)C(=O)O2)cc1 (centres undefined)	2.01
COc1ccc(C(=O)OCC2(CO)C/C(=C/c3ccccn3)C(=O)O2)cc1 (centres undefined)	2.01
COc1ccc(C(=O)OCC2(CO)C/C(=C/c3cccnc3)C(=O)O2)cc1 (centres undefined)	2.01
CCCC(CCC)C(=O)OCC1(CO)C/C(=C\c2cnc3ccccc3c2)C(=O)O1 (centres undefined)	4.06
CC(C)CC(CC(=O)OCC1(CO)C/C(=C\c2ccccn2)C(=O)O1)CC(C)C (centres undefined)	3.78
COc1ccc(C(=O)OCC2(CO)C/C(=C\c3ccccn3)C(=O)O2)cc1 (centres undefined)	2.01
